Tested on: NK-YS (IL-2 2.5 ng/mL)
Assay Info: relative IC50 (inflection point of fitted viability curve, relative to fitted max inhibition); higher = less sensitive
Setup Conditions: 72 h
Recorded Metric: relative IC50 (nM)
Provide the reading as a plain figure in nM.

The cases that follow already have their relative IC50 on record.
{"Compound": "Nc1nc(Nc2ccc3c(c2)CC[C@@H](N2CCCC2)CC3)nn1-c1cc2c(nn1)-c1ccccc1CCC2", "Experimental Target": "NK-YS (IL-2 2.5 ng/mL)", "Recorded Metric": "relative IC50", "Unit Info": "nM", "Recorded Measurement": 2020}
{"Compound": "Cc1csc(-c2nnc(Nc3ccc(Oc4ncccc4-c4ccnc(N)n4)cc3)c3ccccc23)c1", "Experimental Target": "NK-YS (IL-2 2.5 ng/mL)", "Recorded Metric": "relative IC50", "Unit Info": "nM", "Recorded Measurement": 5.4}
{"Compound": "CC(C)[C@H](C(=O)Nc1ccc(C(=O)NO)cc1)c1ccccc1", "Experimental Target": "NK-YS (IL-2 2.5 ng/mL)", "Recorded Metric": "relative IC50", "Unit Info": "nM", "Recorded Measurement": 540}
{"Compound": "CN(C)CCN1C(=O)c2cccc3cc(N)cc(c23)C1=O [Amonafide]", "Experimental Target": "NK-YS (IL-2 2.5 ng/mL)", "Recorded Metric": "relative IC50", "Unit Info": "nM", "Recorded Measurement": 1380}
{"Compound": "CNC(=O)c1ccccc1Sc1ccc2c(/C=C/c3ccccn3)n[nH]c2c1", "Experimental Target": "NK-YS (IL-2 2.5 ng/mL)", "Recorded Metric": "relative IC50", "Unit Info": "nM", "Recorded Measurement": 1100}
{"Compound": "N#CCNC(=O)c1ccc(-c2ccnc(Nc3ccc(N4CCOCC4)cc3)n2)cc1", "Experimental Target": "NK-YS (IL-2 2.5 ng/mL)", "Recorded Metric": "relative IC50", "Unit Info": "nM", "Recorded Measurement": 796}
{"Compound": "NC(=O)Nc1cc(-c2cccc(F)c2)sc1C(=O)N[C@H]1CCCNC1", "Experimental Target": "NK-YS (IL-2 2.5 ng/mL)", "Recorded Metric": "relative IC50", "Unit Info": "nM", "Recorded Measurement": 132}

Now for the compound whose relative IC50 we want.
// returns reported relative IC50 for input "CCCCCCCCc1ccc(CCC(N)(CO)CO)cc1"
2280

====

Tested on: IMC-1 (IL-2 20 ng/mL)
Assay Info: percent inhibition of viability; higher = more inhibition
Setup Conditions: 72 h; 100 nM
Recorded Metric: percent inhibition of viability (%)
Answer format: numeric, % implied, no suffix.

Bench note: what percent inhibition of viability did CN[C@@H](C)C(=O)N[C@H]1CN(C(=O)CC(C)C)CC[C@H]2CC[C@@H](C(=O)NC(c3ccccc3)c3ccccc3)N2C1=O [AT-406] (max concentration tested 10000 nM) show?
4.87

# input compound: CCC1(c2ccc(N)cc2)CCC(=O)NC1=O (stereo unspecified) [Aminoglutethimide] (max concentration tested 10000 nM) ; wanted: its percent inhibition of viability
3.29

Find the recorded percent inhibition of viability belonging to COC(=O)N[C@@H](C)CNc1nccc(-c2cn(C(C)C)nc2-c2cc(Cl)cc(NS(C)(=O)=O)c2F)n1 [Encorafenib] (max concentration tested 1000 nM) and report it.
1.07

# get_value(readout='percent inhibition of viability', item= CC[C@H](CC#N)OC(=O)N[C@@H](C)c1cccc(NC(=O)Nc2ccc(-c3cnco3)c(OC)c2)c1 [AVN944] (max concentration tested 10000 nM) )
-49.7

Tell me the measured percent inhibition of viability of Cn1c(Nc2ccc(C(F)(F)F)cc2)nc2cc(Oc3ccnc(-c4ncc(C(F)(F)F)[nH]4)c3)ccc21 [RAF265] (max concentration tested 1000 nM) , please.
-3.31

So what does the record say about percent inhibition of viability for CCc1cnn2c(NCc3ccc[n+]([O-])c3)cc(N3CCCC[C@H]3CCO)nc12 [Dinaciclib] (max concentration tested 1000 nM) ?
99.7

====

The following compounds are shown together with reported percent inhibition of viability values.
System: SNK-6 (IL-2 2.5 ng/mL)
Assay Info: percent inhibition of viability; higher = more inhibition
Setup Conditions: 72 h; 100 nM
Give the value, in units of %, as a plain number.

# annotated cases, reported percent inhibition of viability shown
{"Compound": "C[C@]12CC[C@@H]3c4ccc(O)cc4C[C@@H](CCCCCCCCC[S+]([O-])CCCC(F)(F)C(F)(F)F)[C@H]3[C@@H]1CC[C@@H]2O (stereo partly specified) [Fulvestrant] (max concentration tested 1000 nM)", "Recorded Metric": "percent inhibition of viability", "Unit Info": "%", "Recorded Measurement": -23.9}
{"Compound": "Cc1ccc(-n2nc(C(C)(C)C)cc2NC(=O)Nc2ccc(OCCN3CCOCC3)c3ccccc23)cc1 [Doramapimod] (max concentration tested 10000 nM)", "Recorded Metric": "percent inhibition of viability", "Unit Info": "%", "Recorded Measurement": -5.96}
{"Compound": "CN(C)CCN1C(=O)c2cccc3cc(N)cc(c23)C1=O [Amonafide] (max concentration tested 10000 nM)", "Recorded Metric": "percent inhibition of viability", "Unit Info": "%", "Recorded Measurement": 20.2}
{"Compound": "Nc1nc(Nc2ccc3c(c2)CC[C@@H](N2CCCC2)CC3)nn1-c1cc2c(nn1)-c1ccccc1CCC2 [BGB324] (max concentration tested 10000 nM)", "Recorded Metric": "percent inhibition of viability", "Unit Info": "%", "Recorded Measurement": -18.1}
{"Compound": "CC[C@H](C)C(=O)O[C@H]1C[C@@H](C)C=C2C=C[C@H](C)[C@H](CC[C@@H]3C[C@@H](O)CC(=O)O3)[C@H]21 [Lovastatin] (max concentration tested 10000 nM)", "Recorded Metric": "percent inhibition of viability", "Unit Info": "%", "Recorded Measurement": 18.8}

Turning to the following compound.
Sample Cc1c(CN2CCN(C(=O)[C@H](C)O)CC2)sc2c(N3CCOCC3)nc(-c3cnc(N)nc3)nc12 [Apitolisib] (max concentration tested 10000 nM) — what was its percent inhibition of viability?
15.2

====

Test system: normal primary NK cells, pool 3 (3 donors) (IL-2 2.5 ng/mL)
Assay Info: percent inhibition of viability; higher = more inhibition
Setup Conditions: 72 h; 1000 nM
Recorded Metric: percent inhibition of viability (%)
Numbers only; they are read as %.

// worked examples, percent inhibition of viability included
{"Compound": "Cc1c(CN2CCN(C(=O)[C@H](C)O)CC2)sc2c(N3CCOCC3)nc(-c3cnc(N)nc3)nc12 [Apitolisib] (max concentration tested 10000 nM)", "Recorded Metric": "percent inhibition of viability", "Recorded Measurement": 6.17}
{"Compound": "Clc1ccc(Nc2nnc(Cc3ccncc3)c3ccccc23)cc1 [Vatalanib] (max concentration tested 10000 nM)", "Recorded Metric": "percent inhibition of viability", "Recorded Measurement": -2.32}
{"Compound": "CCN(CC)CCOc1ccc(C(=C(Cl)c2ccccc2)c2ccccc2)cc1 [Clomifene] (max concentration tested 10000 nM)", "Recorded Metric": "percent inhibition of viability", "Recorded Measurement": 13.6}

Please examine the following record next.
Consider the compound shown here: O=C(CCCCCCNC(=O)c1cnc(N(c2ccccc2)c2ccccc2)nc1)NO [Rocilinostat] (max concentration tested 10000 nM) What is its recorded percent inhibition of viability?
8.12

====

Tested on: SNK-6 (IL-2 2.5 ng/mL)
Assay Info: percent inhibition of viability; higher = more inhibition
Setup Conditions: 72 h; 100 nM
Reported percent inhibition of viability values follow for various compounds
The reply should be a number in %, with the unit left off.

Please review the following examples before continuing.
{"Compound": "O=C(O)CCCc1ccc(N(CCCl)CCCl)cc1 [Chlorambucil] (max concentration tested 10000 nM)", "Recorded Measurement": -1.14}
{"Compound": "CCCc1cc(C)[nH]c(=O)c1CNC(=O)c1cc(-c2ccnc(N3CCN(C)CC3)c2)cc2c1cnn2C(C)C [GSK343] (max concentration tested 10000 nM)", "Recorded Measurement": -7.63}

Now turn to the next compound.
For the compound shown here, CS(=O)(=O)N1CCN(Cc2cc3nc(-c4cccc5[nH]ncc45)nc(N4CCOCC4)c3s2)CC1 [Pictilisib] (max concentration tested 10000 nM) , give the reported percent inhibition of viability.
-3.54

====

System: normal primary NK cells, pool 2 (3 donors) (IL-2 2.5 ng/mL)
Assay Info: percent inhibition of viability; higher = more inhibition
Setup Conditions: 72 h; 1 nM
// values below are reported percent inhibition of viability
API: value field is a number in %; no unit string.

{"Compound": "CCc1cnn2c(NCc3ccc[n+]([O-])c3)cc(N3CCCC[C@H]3CCO)nc12 [Dinaciclib] (max concentration tested 1000 nM)", "Unit Info": "%", "Recorded Measurement": 2.06}
{"Compound": "CC[C@H](CC#N)OC(=O)N[C@@H](C)c1cccc(NC(=O)Nc2ccc(-c3cnco3)c(OC)c2)c1 [AVN944] (max concentration tested 10000 nM)", "Unit Info": "%", "Recorded Measurement": -12.8}

Next compound, please.
Given the compound CC(C)c1c(C(=O)Nc2ccccc2)c(-c2ccccc2)c(-c2ccc(F)cc2)n1CC[C@@H](O)C[C@@H](O)CC(=O)O [Atorvastatin] (max concentration tested 10000 nM) , what is its reported percent inhibition of viability?
-7.16

Values were extracted from the supplement of paper PMC5908809.
